- Tested on: Streptococcus pyogenes
- assay comment: Antibacterial activity against Streptococcus pyogenes ATCC 12344 incubated for 18 to 24 hrs by CLSI based microdilution broth method
- Type: functional
- measurement parameters: time 18-24 hrs
Recorded MIC for the following molecules
outcome measure: MIC (mg/L)

>  <sample smiles>
N=C(NCCCCCCNC(N)=O)NCC1CC1.O=C(O)C(F)(F)F

>  <outcome measure>
MIC

>  <measured>
128

$$$$
>  <sample smiles>
CC(C)CNC(=N)NCCCCCCCCN(CCCCCCCCNC(=N)N)C(=O)N(CCCCCCCCNC(=N)N)CCCCCCCCNC(=N)NCC(C)C.O=C(O)C(F)(F)F

>  <outcome measure>
MIC

>  <measured>
4

$$$$
>  <sample smiles>
N=C(N)NCCCCCCCCN(CCCCCCCCNC(=N)NCC1CC1)C(=O)N(CCCCCCNC(=N)N)CCCCCCNC(=N)NCC1CC1.O=C(O)C(F)(F)F

>  <outcome measure>
MIC

>  <measured>
1

$$$$
>  <sample smiles>
CNC(=O)NCCCCCCCCN(CCCCCCCCNC(=N)NCC1CC1)C(=O)N(CCCCCCCCNC(=N)NCC1CC1)CCCCCCCCNC(=O)NC.O=C(O)C(F)(F)F

>  <outcome measure>
MIC

>  <measured>
4

$$$$
